# System: COLO 205
# Procedure details: NCI tumour cell line growth inhibition, 48 h
Active and inactive are the calls of the source. Rule as the data show it: active = GI50 up to about 1.1 µM and inactive = higher.
Field 'call' accepts active, inactive

For N=C(NCc1ccccc1)N/N=C\c1ccnc2ccccc12 , what call appears in the results of this test?
inactive

For CC(=O)NNc1nc(C)c(C(/C=C/c2ccccc2O)=N/NC(=O)c2ccncc2)s1 , what call appears in the results of this test?
inactive

For CCOC(=O)N1C/C(=C\c2ccc(N(C)C)cc2)C(=O)/C(=C/c2ccc(N(C)C)cc2)C1 , what call appears in the results of this test?
inactive

For COc1cccc([C@@H]2C/C(=N\NC(=O)C(=O)N[C@@H](C)c3ccccc3)c3cc4c(cc3N2)OCO4)c1 , what call appears in the results of this test?
inactive

For Clc1ccccc1/C=C\C1(c2ccccc2)OCCO1 , what call appears in the results of this test?
inactive

For Cn1ccnc1Sc1ccc(/C=N/NC(=O)c2ccccc2O)cc1[N+](=O)[O-] , what call appears in the results of this test?
inactive

For CC1=CCC[C@H]2[C@](C)(CC3=CC(=O)C(SCC(C)C)=CC3=O)[C@@H](C)CC[C@]12C , what call appears in the results of this test?
inactive

For CCOC(=O)c1c(C)n(-c2ccc(Cl)cc2)c2c1cc(O)c1[nH]c3c(c12)CCCC3 , what call appears in the results of this test?
inactive

For O=C(NN1C(=O)CSC1c1ccco1)c1ccncc1 (centres undefined) , what call appears in the results of this test?
inactive

For COc1ccc(/C=N/n2c(Cc3ccccc3)n[nH]c2=O)c(OC)c1 , what call appears in the results of this test?
inactive

For O=C(Cn1cc(-c2ccccc2)nn1)NC1CCCC1 , what call appears in the results of this test?
inactive
